Listed below: z-score values for each entry.
Experiment: HepG2 liver cancer cell viability effects, profiling panel, resazurin fluorescence, 24 h, PK04 Diversity Set (AID 1172); note: test concentration not given here
Details: higher = more signal

Solved cases below.
CC(C)CN1C(=O)[C@@]2(c3ccc([N+](=O)[O-])cc3)CC(=O)N(CC34CC5CC(CC(C5)C3)C4)[C@@H]2c2ccc(CO)cc21: -1.64
COC(=O)[C@@]1(Cc2ccccc2)[C@H]2c3cc(C(=O)N4CCCC4)n(C[C@H](O)CO)c3C[C@H]2CN1C(=O)c1ccccc1: -0.476
CC(C)(C)OC(=O)CC[C@]1(C(=O)N2CCOCC2)N=C(c2ccc(OCCCO)cc2)O[C@H]1c1ccccc1: -0.149

The compound identified as CC(C)(C)OC(=O)CC[C@]1(C(=O)O)N=C(c2ccc(OCCCO)cc2)O[C@H]1c1ccccc1CN=[N+]=[N-] registered its z-score at 0.706

The compound identified as [N-]=[N+]=NCc1ccccc1C[C@@]1(C(=O)NCCN2CCOCC2)N=C(c2ccc(OCCCO)cc2)O[C@@H]1c1ccccc1N=[N+]=[N-] registered its z-score at -0.61

The compound identified as COc1ccc([Si](C)(C)[C@H]2[C@H](CC(=O)N3Cc4ccccc4C[C@H]3CO)O[C@@]3(C(=O)N(Cc4cccc(N5CCCCC5=O)c4)c4ccccc43)[C@@H]2C)cc1 registered its z-score at -0.376

The compound identified as COCCOC(=O)N1C(=O)[C@@]2(c3cc(C#CC4=CCCCC4)ccc31)[C@H](c1ccc(O)cc1)N1[C@H](c3ccccc3)[C@H](c3ccccc3)OC(=O)[C@H]1[C@@H]2C(=O)Nc1nc2ccccc2s1 registered its z-score at -0.477

The compound identified as COc1ccc(NN2C(C(O)c3ccccn3)C=CC3C(=O)N(C4CCCCC4)C(=O)C32)cc1 (stereo not drawn) registered its z-score at 1.64

The compound identified as CC1CC/C=C\[C@H]2OC34C=CCN(CCN5CCOCC5)C(=O)[C@H]3N(CCO)C(=O)[C@@H]4C2C(=O)O1 (stereo partly drawn) registered its z-score at 0.106

The compound identified as C=CCOC(=O)[C@@H]1[C@H]2C(=O)O[C@H](c3ccccc3)[C@H](c3ccccc3)N2[C@H](c2ccc(OCCOC(=O)[C@H]3C[C@H]4C(=O)N[C@@H](CCCCN(C)C)C(=O)N4[C@H]3c3cccc(OCCO)c3)cc2)[C@@]12C(=O)Nc1ccc(I)cc12 registered its z-score at -0.999

The compound identified as [N-]=[N+]=NCc1ccccc1C[C@]1(C(=O)NCC(O)CO)N=C(c2ccc(OCCCO)cc2)O[C@H]1c1ccccc1CN=[N+]=[N-] (stereo partly drawn) registered its z-score at -0.459

The compound identified as C=C(COC)/C(=C/C[C@@H](OC(=O)c1ccncc1)c1ccc(OCCO)cc1)c1cnc2ccccc2c1 registered its z-score at 0.564

The compound identified as COc1cc2c(cc1O)C(C)N(Cc1cc3c(cc1Br)OCO3)CC2 (stereo not drawn) registered its z-score at -0.587

The compound identified as COc1ccc([Si](C)(C)[C@@H]2[C@@H](CCO)O[C@]3(C(=O)N(Cc4cccc(N5C(=O)c6ccccc6Oc6ccccc65)c4)c4ccccc43)[C@H]2C)cc1 registered its z-score at -1.11

The compound identified as COCCOC(=O)N1C(=O)[C@@]2(c3cc(C#CC4=CCCCC4)ccc31)[C@H](C(=O)N1CCN(c3ncccn3)CC1)[C@H]1C(=O)O[C@H](c3ccccc3)[C@H](c3ccccc3)N1[C@@H]2c1ccc(O)cc1 registered its z-score at -0.173

The compound identified as CN1C2C=C(CCCO)C(C3C(=O)N(C(N)=O)C(=O)C32)C1c1cccs1 (stereo not drawn) registered its z-score at -1

The compound identified as CN1C(=O)[C@@]2(CCS(=O)(=O)c3ccccc3)N=C(c3ccc(OCCCO)cc3)O[C@H]2c2ccccc21 registered its z-score at 0.316

The compound identified as C[C@H]1C2=C3C(CC[C@H]4C(OCc5ccc(F)cc5C(F)(F)F)OC[C@](C)([C@@H]34)N(C(=O)OC(C)(C)C)C2)C2COC(=O)OCC21 (stereo partly drawn) registered its z-score at -1.33

The compound identified as CC[C@H]1C2=C3C(CC[C@H]4C(OCc5ccc(F)cc5C(F)(F)F)OC[C@](C)([C@@H]34)N(C(=O)OC(C)(C)C)C2)C2COC(=O)OCC21 (stereo partly drawn) registered its z-score at -1.12
